Origin of the recorded values: the supplement of paper PMC10567573

assay-name: protein stability index of a GFP-peptide fusion (GPS, HEK-293T) (PSI 1-6); higher = more stable;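 further: 24-mer peptide tiles fused after GFP, lentivirally expressed, FACS-sorted into six equal bins by GFP/DsRed ratio, decoded by Illumina sequencing, PSI is the read-weighted mean bin number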
experimental-setup: treatment: MLN4924 1 uM, 8 h; c terminus: a fixed tail appended
measured-metric: protein stability index
API note: the answer field is a bare number with no unit suffix.

**Q:** For the sequence QEKKLSFIEALIQQYQEQLDKSTK [TRIM63] , what protein stability index is on record?
**A:** 3.11

**Q:** For the sequence ISESMAACTRSLLGDPPPLLTLPR [HDAC6] , what protein stability index is on record?
**A:** 3.29

**Q:** For the sequence LQCRSPPRLHGAKAILDAEPGPRP [TBC1D10A] , what protein stability index is on record?
**A:** 4.48

**Q:** For the sequence DLQNLLGFTPEELHAILGVQPDTE [ETS2] , what protein stability index is on record?
**A:** 3.45

**Q:** For the sequence DMELHRMSRMQSKEYPVVPRSTVR [TBX5] , what protein stability index is on record?
**A:** 4.33

**Q:** For the sequence RHSNVVILTTSNITEKIDVAFVDR [TRIP13] , what protein stability index is on record?
**A:** 2.14

**Q:** For the sequence AKRCTVIGGSGFLGQHMVEQLLAR [NSDHL] , what protein stability index is on record?
**A:** 2.21

**Q:** For the sequence IPRGFPTIDMGPQLKVVERTRTAT [PTPRD] , what protein stability index is on record?
**A:** 3.68

**Q:** For the sequence LLKTPWRAASAMQFFTKGYQETIS [GCH1] , what protein stability index is on record?
**A:** 2.44

**Q:** For the sequence PGTPPSYSSRTPGTPGTPSYPRTP [MAP2] , what protein stability index is on record?
**A:** 4.55

**Q:** For the sequence RLCGRQVSRGPGVNVGTTALWKHL [ZBED2] , what protein stability index is on record?
**A:** 2.17

**Q:** For the sequence FFTLDLEHIADALRAIDFGTDEEE [TRIM63] , what protein stability index is on record?
**A:** 4.27

**Q:** For the sequence GDKSESPDEANVGKHPKDKTEDEN [TOR1AIP2] , what protein stability index is on record?
**A:** 5.44

**Q:** For the sequence DHMREAGDVCYADVYRDGTGVVEF [SRSF1] , what protein stability index is on record?
**A:** 3.18

---

assay-name: protein stability index of a GFP-peptide fusion (GPS, HEK-293T) (PSI 1-6); higher = more stable
experimental-setup: treatment: MLN4924 1 uM, 8 h; c terminus: a fixed tail appended
Answer NOT MET if protein stability index is under 3, and MET if it is 3 or more.

**Q:** # check: protein stability index of NLHRVAAHELGHSLGLSHSTDIGA [MMP1] is greater than or equal to 3
**A:** MET

**Q:** # check: protein stability index of SHHSKHKAPSKLGLIISGPILQEG [DLC1] is greater than or equal to 3
**A:** MET

**Q:** # check: protein stability index of CQVGGIEALVRTVLRAGDREDITE [CTNNB1] is greater than or equal to 3
**A:** MET

**Q:** # check: protein stability index of HDCAESGSLDIMKMLLMYCAKMEK [FEM1C] is greater than or equal to 3
**A:** NOT MET

**Q:** # check: protein stability index of EELNNGEPQTEHQQESESEIDSVP [MIA2] is greater than or equal to 3
**A:** MET

**Q:** # check: protein stability index of LGVAVAVLGGFLYAVGGSDGTSPL [KLHL20] is greater than or equal to 3
**A:** NOT MET

**Q:** # check: protein stability index of LEASNYQMMPYMQPVMQSDRTAIR [KLHL13] is greater than or equal to 3
**A:** MET

**Q:** # check: protein stability index of DCSDILRLIKELAKYEYMEEQVIL [SAT1] is greater than or equal to 3
**A:** NOT MET

**Q:** # check: protein stability index of EQLQGFNTRVRELAQAAGFAPQTG [DNAAF3] is greater than or equal to 3
**A:** MET
